Each entry below carries its recorded activity change, negative = inhibition.
test-method-notes: NFAT Signaling Pathway (AID 444);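 also: carbachol stimulus at about its EC50 of 1 µM final; % is scaled to controls: 0 for no effect and ±100 for the full control effect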
condition: Jurkat NFAT-bla M1, carbachol, beta-lactamase ratio, 5 h; at 17.2 µM (top of the series) unless noted
Records with an inconclusive call do not appear. Calls of active or inactive are those of the source. Calls follow the shape of the dose curve; as a rule, active = well fitted curve in either direction with a large enough effect (not every such curve was filed as active); inconclusive = small, poorly fitted or top-dose-only effect, or another doubt; inactive = flat fitted curve, though single readings scatter.

Recorded activity change, negative = inhibition, per entry:
compound: Cc1nc2c(c(=O)n1CC1CCCO1)c1nc3ccccc3nc1n2CCC(C)C (stereo not drawn)
activity change, negative = inhibition: -6.4% (inactive)

compound: CCOC(=O)C1CSc2[nH]c(=O)sc2C1c1ccccc1 (stereo not drawn)
activity change, negative = inhibition: -1.24% (inactive)

compound: O=c1[nH]c(=O)n([C@H]2C[C@H](O)[C@H](CO)O2)cc1/C=C\Br
activity change, negative = inhibition: 3.97% [at 38 µM] (inactive)

compound: COc1ccc(N/C(=N\c2nc(C)cc(C)n2)NC(=O)C(C)C)cc1OC
activity change, negative = inhibition: 21.2% (inactive)

compound: CN(Cc1ccccc1)Cc1c[nH]c2ccccc12
activity change, negative = inhibition: -28.7% (inactive)

compound: CC(NC(=O)Nc1ncccn1)(C(F)(F)F)C(F)(F)F
activity change, negative = inhibition: 1.67% (inactive)

compound: Cc1ccccc1N1C(=O)C2ON(c3ccccc3)C(c3ccncc3)C2C1=O (stereo not drawn)
activity change, negative = inhibition: 18.5% (inactive)

compound: O=C(O)CCSc1ccc2ccccc2n1
activity change, negative = inhibition: 11.5% (inactive)

compound: Cn1c(=O)n(Cc2ccccc2)c(=O)c2c1nc(NCC1CCCO1)n2Cc1ccccc1 (stereo not drawn)
activity change, negative = inhibition: -16.1% (inactive)

compound: CC1(C)Cc2c(c(-c3ccccc3)[nH]c(=O)c2C#N)CS1
activity change, negative = inhibition: 2.27% (inactive)

Q: Reported activity change, negative = inhibition for CCOC(=O)c1ccc(N2CC(O)=C(c3nc4ccccc4c(=O)[nH]3)C2=N)cc1 : what is it?
Ans: -8.54% (inactive)

Q: Repeat for the following compound: Cc1ccc2[nH]c3c(N4CCOCC4)ncnc3c2c1
Ans: 18.4% (inactive)

Q: Repeat for the following compound: CCCCOc1nc2ccccc2nc1C(C#N)C(=O)NC1CCCCC1 (stereo not drawn)
Ans: -13.6% (inactive)

Q: Repeat for the following compound: O=C1OC(N2CCN(C/C=C/c3ccccc3)CC2)c2ccccc21 (stereo not drawn)
Ans: 10.2% (inactive)

Q: Repeat for the following compound: COc1cc(C)nc(N(C)S(=O)(=O)c2ccccc2Cl)n1
Ans: -19.3% (inactive)

Q: Repeat for the following compound: CCOC(=O)CC1=C(C(=O)OCC)C(c2cc(OC)c(OC)cc2OC)C(C#N)=C(N)O1 (stereo not drawn)
Ans: -1.8% (inactive)

Q: Repeat for the following compound: CC(=O)c1c(C)c2c(n1CCN(C)C)CCCC2
Ans: -7.5% (inactive)

Q: Repeat for the following compound: CCn1c(SCC(=O)O)nc2sc3c(c2c1=O)CCC3
Ans: -8.87% (inactive)

Q: Repeat for the following compound: COc1cccc(-c2nnc3sc(-c4ccccc4)nn23)c1
Ans: -8.12% (inactive)

Q: Repeat for the following compound: CC(=O)N[C@H]1C[C@@H]1c1ccccc1
Ans: -8.6% (inactive)

Q: Repeat for the following compound: Cn1cccc1/C=N/n1cnnc1
Ans: -1.22% (inactive)

Q: Repeat for the following compound: O=C(CN1C(=O)c2ccccc2C1=O)OCN1C(=O)c2ccccc2C1=O
Ans: -11.6% (inactive)

Q: Repeat for the following compound: C=CCOc1ccc(C2/C(=C(\O)c3ccc(F)cc3)C(=O)C(=O)N2CCCN(C)C)cc1 (stereo not drawn)
Ans: -5.15% (inactive)
